Experiment: Stability (half life) in buffer solutions at pH 3, 5 and 7 at 50, 75 or 100 °C
Format: physicochemical
Details: buffer, pH 3, buffer solution, 75 °C, pH 3
Experimental: α-L-Aspartyl-2-methylalanine[β(+)Fenchyl]ester (Example 9), α-L-Aspartyl-D-alanine[β(+)Fenchyl]ester, (Example 10) and aspartame L-Aspartyl-L-phenylalanine methyl ester were studied for stability at pH3, 5 and 7 in buffer solutions maintained at 50° C., 75° C., or 100° C., the following results were obtained: […]
Where a SMILES comes first, the peptide text is derived from it.
REPORTED_METRIC: half-life (h)

A = CC(C)(NC(=O)[C@@H](N)CC(=O)O)C(=O)OC1C2(C)CCC(C2)C1(C)C (single isomer, unassigned) [Example 9]
B = C[C@@H](NC(=O)[C@@H](N)CC(=O)O)C(=O)OC1C2(C)CCC(C2)C1(C)C (single isomer, unassigned) [Example 10, α-L-Aspartyl-D-alanine[β(+)Fenchyl]ester]
C = COC(=O)[C@H](Cc1ccccc1)NC(=O)[C@@H](N)CC(=O)O [Aspartame, L-Aspartyl-L-phenylalanine methyl ester, reference compound] (H-Asp-Phe-OMe)
Challenge: Please rank these compounds by half-life in descending order. # answer = labels listed in requested order
Response given: A, B, C

====

assay: Stability (half life) in buffer solutions at pH 3, 5 and 7 at 50, 75 or 100 °C; type: physicochemical; conditions: buffer, pH 5, buffer solution, 100 °C, pH 5
Where a SMILES comes first, the peptide text is derived from it.
REPORTED_METRIC: half-life (h)

A = C[C@@H](NC(=O)[C@@H](N)CC(=O)O)C(=O)OC1C2(C)CCC(C2)C1(C)C (single isomer, unassigned) [Example 10, α-L-Aspartyl-D-alanine[β(+)Fenchyl]ester]
B = CC(C)(NC(=O)[C@@H](N)CC(=O)O)C(=O)OC1C2(C)CCC(C2)C1(C)C (single isomer, unassigned)
C = COC(=O)[C@H](Cc1ccccc1)NC(=O)[C@@H](N)CC(=O)O [Aspartame, L-Aspartyl-L-phenylalanine methyl ester, reference compound] (H-Asp-Phe-OMe)
Challenge: Put the above compounds in order of rising half-life, beginning with the smallest. Respond with the label ranking, as requested.
Response given: C, A, B

====

assay: Stability (half life) in buffer solutions at pH 3, 5 and 7 at 50, 75 or 100 °C; type: physicochemical; settings: buffer, pH 5, buffer solution, 50 °C, pH 5
REPORTED_METRIC: half-life (days)

1. CC(C)(NC(=O)[C@@H](N)CC(=O)O)C(=O)OC1C2(C)CCC(C2)C1(C)C (single isomer, unassigned) [Example 9] | 150
2. C[C@@H](NC(=O)[C@@H](N)CC(=O)O)C(=O)OC1C2(C)CCC(C2)C1(C)C (single isomer, unassigned) [Example 10, α-L-Aspartyl-D-alanine[β(+)Fenchyl]ester] | 131

====

test: Stability (half life) in buffer solutions at pH 3, 5 and 7 at 50, 75 or 100 °C; type: physicochemical; details: buffer, pH 3, buffer solution, 100 °C, pH 3
Where a SMILES comes first, the peptide text is derived from it.
REPORTED_METRIC: half-life (min)

1. COC(=O)[C@H](Cc1ccccc1)NC(=O)[C@@H](N)CC(=O)O [Aspartame, L-Aspartyl-L-phenylalanine methyl ester, reference compound] (H-Asp-Phe-OMe) | 318

P = C[C@@H](NC(=O)[C@@H](N)CC(=O)O)C(=O)OC1C2(C)CCC(C2)C1(C)C (single isomer, unassigned) [Example 10, α-L-Aspartyl-D-alanine[β(+)Fenchyl]ester]
Q = CC(C)(NC(=O)[C@@H](N)CC(=O)O)C(=O)OC1C2(C)CCC(C2)C1(C)C (single isomer, unassigned)
Challenge: Between the entries labeled P and Q , whose measured half-life is lower? Refer to your chosen item by its label in the answer.
Response given: P
